- ASSAYED_SYSTEM: ROCK1 (Homo sapiens, UniProt Q13464)
- Sequence (Q13464 whole entry): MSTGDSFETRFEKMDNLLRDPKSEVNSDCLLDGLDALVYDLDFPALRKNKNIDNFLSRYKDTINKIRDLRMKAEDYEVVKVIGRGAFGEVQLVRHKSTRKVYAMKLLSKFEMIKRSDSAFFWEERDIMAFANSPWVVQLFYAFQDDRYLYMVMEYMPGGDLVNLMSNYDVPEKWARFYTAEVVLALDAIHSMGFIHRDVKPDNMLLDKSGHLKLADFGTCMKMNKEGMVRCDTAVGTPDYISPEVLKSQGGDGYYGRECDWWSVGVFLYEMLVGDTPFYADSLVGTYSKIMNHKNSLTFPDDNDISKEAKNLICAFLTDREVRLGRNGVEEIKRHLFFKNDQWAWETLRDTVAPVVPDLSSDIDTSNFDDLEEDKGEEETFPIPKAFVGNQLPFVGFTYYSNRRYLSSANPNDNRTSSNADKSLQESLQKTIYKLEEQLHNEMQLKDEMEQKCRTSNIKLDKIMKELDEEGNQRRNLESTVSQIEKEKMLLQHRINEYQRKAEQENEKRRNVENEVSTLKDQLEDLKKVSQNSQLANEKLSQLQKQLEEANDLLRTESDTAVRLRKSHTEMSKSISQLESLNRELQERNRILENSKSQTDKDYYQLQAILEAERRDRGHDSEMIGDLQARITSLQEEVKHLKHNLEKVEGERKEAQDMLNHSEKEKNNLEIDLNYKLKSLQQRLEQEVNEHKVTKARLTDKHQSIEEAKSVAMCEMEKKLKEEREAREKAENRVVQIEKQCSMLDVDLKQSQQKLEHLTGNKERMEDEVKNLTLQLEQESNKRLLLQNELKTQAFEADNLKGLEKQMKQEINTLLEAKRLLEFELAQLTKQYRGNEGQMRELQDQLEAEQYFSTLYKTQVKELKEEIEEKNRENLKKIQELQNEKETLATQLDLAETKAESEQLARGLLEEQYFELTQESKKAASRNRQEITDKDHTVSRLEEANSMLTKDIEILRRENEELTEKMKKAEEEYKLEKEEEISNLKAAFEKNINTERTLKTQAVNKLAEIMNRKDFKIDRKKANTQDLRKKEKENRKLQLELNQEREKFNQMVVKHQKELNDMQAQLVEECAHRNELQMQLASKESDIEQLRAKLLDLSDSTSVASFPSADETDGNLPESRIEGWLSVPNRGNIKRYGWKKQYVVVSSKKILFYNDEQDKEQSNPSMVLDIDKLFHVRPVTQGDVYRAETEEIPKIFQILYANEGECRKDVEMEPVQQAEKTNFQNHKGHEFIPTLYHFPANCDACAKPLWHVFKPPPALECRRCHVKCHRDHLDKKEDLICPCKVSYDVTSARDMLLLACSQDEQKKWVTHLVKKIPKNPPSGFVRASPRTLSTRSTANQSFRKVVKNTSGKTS
EXPERIMENTAL_ENDPOINT: IC50

Report IC50 from ROCK1 (Homo sapiens, UniProt Q13464) testing of CNc1cc(-c2cn(C3(CC#N)CN(S(C)(=O)=O)C3)nc2N)ncn1
> 100 nM

====

As shown below, each of these compounds has a reported pIC50 value.
- ASSAYED_SYSTEM: ROCK1 (Homo sapiens, UniProt Q13464)
pIC50: −log10 of the molar value.

INSERT INTO measurements (compound, measured_result) VALUES
  ('CCS(=O)(=O)N1CC(CC#N)(n2cc(-c3cc(-c4cnn(C)c4)nn4ccnc34)c(N)n2)C1 [Example 80]', '< 7.00'),
  ('N#CCC1(n2cc(-c3ncnc4[nH]ccc34)c(O)n2)CN(S(=O)(=O)C2CC2)C1 [Example 58]', '> 7.30'),
  ('N#CCC1(n2cc(-c3ncnc4[nH]ccc34)c(N)n2)CN(C(=O)[C@H]2C[C@@H]2F)C1 [Example 31]', '> 8.30');

// below: pIC50 requested for another compound
Please indicate recorded pIC50 of CS(=N)(=O)N1CC(CC#N)(n2cc(-c3ncnc4[nH]ccc34)c(N)n2)C1 (stereo not shown) [Example 36] measured with ROCK1 (Homo sapiens, UniProt Q13464).
> 8.30

====

Counter-ions that a name gives are not always drawn.
Target or system ROCK2 (Homo sapiens, UniProt O75116); recorded quantity IC50.

Example molecules with recorded IC50:
INSERT INTO measurements (molecule, assayed_system, measured_result) VALUES
  ('N#CCC1(n2cc(-c3ncnc4[nH]ccc34)c(N)n2)CN(S(=O)(=O)C(F)(F)F)C1', 'ROCK2 (Homo sapiens, UniProt O75116)', '< 0.005 µM'),
  ('N#CCC1(n2cc(-c3ncnc4[nH]ccc34)c(C(N)=O)n2)CN(S(=O)(=O)CC(F)(F)F)C1', 'ROCK2 (Homo sapiens, UniProt O75116)', '> 0.1 µM');

Complete the entry with IC50 for C[C@H](N)CS(=O)(=O)N1CC(CC#N)(n2cc(-c3ncnc4[nH]ccc34)c(N)n2)C1 [Example 87, trifluoroacetate salt]
< 0.005 µM

Answer with the recorded IC50 for the molecule listed here: CN1CCC(Nc2ncnc(-c3cn(C4(CC#N)CN(S(C)(=O)=O)C4)nc3N)n2)CC1
> 0.1 µM

Note IC50 for the molecule shown: CN(C)CCNc1nn(C2(CC#N)CN(S(=O)(=O)C(F)(F)F)C2)cc1-c1ncnc2[nH]ccc12
< 0.005 µM

====

As an illustration, consider measured IC50 for molecules on ROCK1 (Homo sapiens).

Look over these answered cases.
INSERT INTO measurements (molecule, measured_result) VALUES
  ('CS(=O)(=O)N1CC(CC#N)(n2cc(-c3cc(NCC4CCOCC4)ncn3)c(N)n2)C1', '> 100 nM'),
  ('N#CCNS(=O)(=O)N1CC(CC#N)(n2cc(-c3ncnc4[nH]ccc34)c(N)n2)C1', '< 10 nM'),
  ('N#CCC1(n2cc(-c3ncnc4[nH]ccc34)c(N)n2)CN(C(=O)C2CC2)C1', '< 50 nM'),
  ('N#CCC1(n2cc(-c3ncnc4[nH]ccc34)c(N)n2)CN(C(=O)[C@@H]2C[C@H]2C#N)C1', '< 10 nM'),
  ('N#CCC1(n2cc(-c3ncnc4[nH]ccc34)c(N)n2)CN(S(=O)(=O)NCCCl)C1', '< 10 nM');

Please supply the value of reported IC50 for the item N#CCC1(n2cc(-c3ncnc4[nH]ccc34)c(N)n2)CN(S(=O)(=O)CC(F)(F)F)C1
< 10 nM

Quickly give me recorded IC50 for N#CCC1(n2cc(-c3ncnc4[nH]ccc34)c(N)n2)CN(S(=O)(=O)NCCO)C1
< 50 nM

Could you please provide reported IC50 for CS(=O)(=O)N1CC(CC#N)(n2cc(-c3ncnc(NC4CCOCC4)n3)c(N)n2)C1 ? Thanks!
> 100 nM

Item CCS(=O)(=O)N1CC(CC#N)(n2cc(-c3ncnc4[nH]ccc34)c(O)n2)C1 : provide IC50
< 50 nM

Read off the recorded IC50 for COc1nn(C2(CC#N)CN(S(=O)(=O)C(C)C)C2)cc1-c1ncnc2[nH]ccc12
< 50 nM

Report IC50 for CCNC(=O)N1CC(CC#N)(n2cc(-c3ncnc4[nH]ccc34)c(N)n2)C1
< 5 nM

// fetch IC50 given entry CN(C)CCNS(=O)(=O)N1CC(CC#N)(n2cc(-c3ncnc4[nH]ccc34)c(N)n2)C1
< 10 nM

Determine its reported IC50: CS(=O)(=O)N1CC(CC#N)(n2cc(-c3cc(NCCO)ncn3)c(N)n2)C1
> 100 nM

Look up and report measured IC50 for this entry: CN(C)CC(=O)N1CC(CC#N)(n2cc(-c3ncnc4[nH]ccc34)c(N)n2)C1
< 50 nM

Item CC(N)CS(=O)(=O)N1CC(CC#N)(n2cc(-c3ncnc4[nH]ccc34)c(N)n2)C1 (stereo not drawn) : provide IC50
< 5 nM
